Reference for the values: patent US6734169B2

Test: Circular dichroism: degree of helicity
Assay type: physicochemical
Conditions: percent helicity; peptide-micelle complexes (1-myristoyl-2-hydroxy-sn-glycero-3-phosphatidyl choline, Ri=100); 37° C.
Square brackets hold non-standard residues; d marks the D form. Primed or numbered codes have the meaning given here. Ends that are not written are not given here. Nal″ = Z is Nal (naphthylalanine; Nal = Z in the sequences is Nal
quantity kind: He (%) mics

Q: For the substance PVLDLFRELLNELZEALKQKLK (PVLDLFRELLNEL[Nal]EALKQKLK) [compound 27] , what He (%) mics is on record?
Result: 92%

Q: // query: GVLELFENLLERLLDALQKKLK [compound 145]
Result: 51%

Q: // query: PVLDLFRELLNELLEAZKQKLK (PVLDLFRELLNELLEA[Nal″]KQKLK) [peptide 10]
Result: 87%

Q: // query: EWLEAFYKKVLEKLKELF* (Ac-EWLEAFYKKVLEKLKELF-NH2) [compound 239, reference compound]
Result: 49%

Q: // query: PVLDZFRELLNELLEALKQKLK (PVLD[Nal]FRELLNELLEALKQKLK) [compound 34]
Result: 67%

Q: // query: pVLELFENLLERLLDALQKKLK ([dP]VLELFENLLERLLDALQKKLK) [compound 144]
Result: 88%

====

What He (%) SUVs was measured for each of the following?
Test: Circular dichroism: degree of helicity
Assay type: physicochemical
Conditions: percent helicity; peptide-SUV complexes (20:1 EPC:Chol., Ri=50); 37° C.
Square brackets hold non-standard residues; d marks the D form. Primed or numbered codes have the meaning given here. Ends that are not written are not given here. Nal″ = Z is Nal (naphthylalanine; Nal = Z in the sequences is Nal; Aib = CC(C)(N)C(=O)O
API: value field is a number in %; no unit string.

Q: For the sequence PVLDLFRELLNELZEALKQKLK (PVLDLFRELLNEL[Nal]EALKQKLK) [compound 27] , what He (%) SUVs is on record?
Result: 82

Q: // query: PVLDLFRELLNELLEAZKQKLK (PVLDLFRELLNELLEA[Nal″]KQKLK) [peptide 10]
Result: 70

Q: // query: PVLDLFRWLLNEXLEALKQKLK (PVLDLFRWLLNE[Aib]LEALKQKLK) [compound 108]
Result: 54

Q: // query: PVLDZFRELLNELLEALKQKLK (PVLD[Nal]FRELLNELLEALKQKLK) [compound 34]
Result: 68

====

Assay: Circular dichroism: degree of helicity
Type: physicochemical
Settings: percent helicity; 5 μM peptide, 90% vol TFE; 37° C.
Square brackets hold non-standard residues; d marks the D form. Primed or numbered codes have the meaning given here. Ends that are not written are not given here. Nal″ = Z is Nal (naphthylalanine; Nal = Z in the sequences is Nal
quantity kind: He (%) TFE
API: value field is a number in %; no unit string.

Q: For the substance GVLELFENLLERLLDALQKKLK [compound 145] , what He (%) TFE is on record?
Result: 58

Q: // query: PVLDLFRELLNELZEALKQKLK (PVLDLFRELLNEL[Nal]EALKQKLK) [compound 27]
Result: 81

Q: // query: pVLELFENLLERLLDALQKKLK ([dP]VLELFENLLERLLDALQKKLK) [compound 144]
Result: 95

Q: // query: PVLDLFRELLNELLEAZKQKLK (PVLDLFRELLNELLEA[Nal″]KQKLK) [peptide 10]
Result: 71

Q: // query: PVLDZFRELLNELLEALKQKLK (PVLD[Nal]FRELLNELLEALKQKLK) [compound 34]
Result: 62

====

Test: Circular dichroism: degree of helicity
Type: physicochemical
Details: percent helicity; free, unbound peptide, 5 μM in 5 mM phosphate buffer, pH 7.4; 37° C.
Square brackets hold non-standard residues; d marks the D form. Ends that are not written are not given here. Nal = Z in the sequences is Nal
He (%) free of 60% or higher: criterion met. Under 60%: criterion not met.

Q: He (%) free >= 60% for EWLEAFYKKVLEKLKELF* (Ac-EWLEAFYKKVLEKLKELF-NH2) [compound 239, reference compound] ?
Result: criterion not met

Q: // query: pVLELFENLLERLLDALQKKLK ([dP]VLELFENLLERLLDALQKKLK) [compound 144]
Result: criterion met

Q: // query: PVLDZFRELLNELLEALKQKLK (PVLD[Nal]FRELLNELLEALKQKLK) [compound 34]
Result: criterion not met

Q: // query: PVLDLFRELLNELZEALKQKLK (PVLDLFRELLNEL[Nal]EALKQKLK) [compound 27]
Result: criterion met

Q: // query: GVLELFENLLERLLDALQKKLK [compound 145]
Result: criterion not met
